Origin of values: patent US4156737A

PROTOCOL DESCRIPTION: LD50 in mice, intraperitoneal route (acute toxicity)
Assay type: in vivo
CONDITIONS: mouse, in vivo, ip; mice, intraperitoneal route
READOUT: LD50 (mg/kg)
I only need the number, in mg/kg, no unit after it.

Looking up NCc1ccc(S(N)(=O)=O)cc1 , I found its LD50 recorded as 55
